EXPERIMENTAL TARGET: human serotonin 5-HT6 receptor (Homo sapiens, UniProt P50406)
Sequence (P50406 whole entry): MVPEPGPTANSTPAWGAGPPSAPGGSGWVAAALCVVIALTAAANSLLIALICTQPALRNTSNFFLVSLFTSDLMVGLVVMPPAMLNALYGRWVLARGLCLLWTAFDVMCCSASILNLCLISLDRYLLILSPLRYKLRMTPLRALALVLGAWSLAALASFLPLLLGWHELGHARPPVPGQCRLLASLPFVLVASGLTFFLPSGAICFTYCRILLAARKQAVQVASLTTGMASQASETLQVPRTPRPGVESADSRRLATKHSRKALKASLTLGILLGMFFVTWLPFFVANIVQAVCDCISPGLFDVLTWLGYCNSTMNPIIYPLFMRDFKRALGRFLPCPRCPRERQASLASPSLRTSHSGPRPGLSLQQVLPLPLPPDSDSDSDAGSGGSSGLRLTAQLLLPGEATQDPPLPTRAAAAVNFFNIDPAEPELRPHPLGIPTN
PROPERTY: Ki

- Cc1c(-c2ccccc2)sc(NC(=O)Cn2c(=O)cnc3ccccc32)c1C(=O)N1CCCCC1 [Compound 9]: 7.5 µM
- Cc1c(C(=O)N2CCC(c3ncc[nH]3)CC2)n[nH]c1-c1ccc(Cl)cc1 [Compound 8]: 13.2 µM

###

EXPERIMENTAL TARGET: human 5-HT1B receptor (Homo sapiens, UniProt P28222)
Construct: expressed in transfected cells; host or cells: HeLa (Hela-5-HT1B cell line, Lot A001/14-11-2011)
Sequence (P28222 whole entry): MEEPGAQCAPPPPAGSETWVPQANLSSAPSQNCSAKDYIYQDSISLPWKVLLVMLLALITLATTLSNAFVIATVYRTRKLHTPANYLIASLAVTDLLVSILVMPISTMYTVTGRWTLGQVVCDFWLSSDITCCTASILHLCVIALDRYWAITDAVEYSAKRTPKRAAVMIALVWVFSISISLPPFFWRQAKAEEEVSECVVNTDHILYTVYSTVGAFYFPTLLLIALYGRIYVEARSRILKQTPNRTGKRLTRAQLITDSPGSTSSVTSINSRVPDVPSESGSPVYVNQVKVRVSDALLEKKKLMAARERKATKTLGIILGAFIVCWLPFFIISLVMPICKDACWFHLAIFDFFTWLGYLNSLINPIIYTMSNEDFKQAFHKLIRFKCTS
PROCEDURE TEXT: Competition binding in human 5-HT1B receptor ([3H]-GR125743, Hela-5-HT1B membranes)
APPLIED CONDITIONS: 10 µM compound; mean ± SD of three independent assays with duplicate measurements; read-out: 5-HT1B (%) percentage of inhibition
Would you mind labelling by inhibition at 10 µM? At or over 7% is MET, under is NOT MET.

- Cc1cccc2[nH]c(C3CCN(C(=O)c4cnn[nH]4)CC3)nc12: MET
- CCc1ccc(NC(=O)c2ccc(-c3noc(C4CCN(C(=O)c5ccc(F)cc5)CC4)n3)cc2)cc1: NOT MET
- Cc1ncc(C(=O)N2CCC(c3nccn3Cc3ccccc3)CC2)c(=O)[nH]1: MET
- COc1ccc2c(c1)NC1(CCN(C(=O)c3ccc(C)c(C)c3)CC1)c1cccn1-2: MET
- CCOC(=O)c1c(CN2CCCCC2)n(C)c2c1cc(OC(C)=O)c1c2c(-c2ccccc2)nn1-c1ccccc1: MET
